# TESTED TARGET: Adenosine receptor A3 (Homo sapiens) (UniProt P0DMS8)
# Sequence (P0DMS8 whole entry): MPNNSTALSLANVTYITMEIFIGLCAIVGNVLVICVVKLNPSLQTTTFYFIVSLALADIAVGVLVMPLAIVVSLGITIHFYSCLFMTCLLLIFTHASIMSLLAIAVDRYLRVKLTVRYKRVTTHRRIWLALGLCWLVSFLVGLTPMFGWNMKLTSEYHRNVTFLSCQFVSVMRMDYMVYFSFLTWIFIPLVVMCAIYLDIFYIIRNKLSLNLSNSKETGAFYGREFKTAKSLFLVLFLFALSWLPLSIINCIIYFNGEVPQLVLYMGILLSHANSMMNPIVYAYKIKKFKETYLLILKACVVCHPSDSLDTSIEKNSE
# PROTOCOL NOTES: Partial agonist activity at human recombinant adenosine A3 receptor expressed in CHO cells assessed as inhibition of forskolin-stimulated cAMP production at 10 uM incubated for 30 mins prior to forskolin addition by enzyme immunoassay relative to C1-IB-MECA
# Type: functional, cell-based
OUTCOME MEASURE: inhibition (%)

The measured inhibition associated with CCCC/C=C/c1nc2c(N)ncnc2n1[C@@H]1OC[C@@H](O)[C@H]1O reads 19.5

[A] CCCCC#Cc1nc(N)c2ncn([C@@H]3OC[C@@H](O)[C@H]3O)c2n1
[B] CCCCC#Cc1nc2c(N)ncnc2n1[C@@H]1SC[C@@H](O)[C@H]1O
[C] CCCCC#Cc1nc(NCc2cccc(I)c2)c2ncn([C@@H]3OC[C@@H](O)[C@H]3O)c2n1
[D] CCCCC#Cc1nc(N)c2ncn([C@@H]3SC[C@@H](O)[C@H]3O)c2n1
Ask: # desc sort on inhibition across 4 compounds Note for the reader: the ranking is given by listing the labels in the order requested.
Result: C, A, D, B

====

# TESTED TARGET: Adenosine receptor A3 (Homo sapiens)
# PROTOCOL NOTES: Partial agonist activity at human recombinant adenosine A3 receptor expressed in CHO cells assessed as inhibition of forskolin-stimulated cAMP production at 10 uM incubated for 30 mins prior to forskolin addition by enzyme immunoassay relative to C1-IB-MECA
# Type: functional, cell-based
OUTCOME MEASURE: inhibition (%)

Use these answered entries as a reference point.
// inhibition (Adenosine receptor A3 (Homo sapiens)) for CCCCC#Cc1nc2c(N)ncnc2n1[C@@H]1OC[C@@H](O)[C@H]1O = 24.5

# CCCCC#Cc1nc(NCc2cccc(Cl)c2)c2ncn([C@@H]3SC[C@@H](O)[C@H]3O)c2n1 with Adenosine receptor A3 (Homo sapiens): inhibition is 47.2

inhibition on Adenosine receptor A3 (Homo sapiens) for CCCCC#Cc1nc(NCc2cccc(Br)c2)c2ncn([C@@H]3SC[C@@H](O)[C@H]3O)c2n1 is 25.2

Measured inhibition for this entry CCCCC#Cc1nc(NCc2cccc(Cl)c2)c2ncn([C@@H]3OC[C@@H](O)[C@H]3O)c2n1 on Adenosine receptor A3 (Homo sapiens): 39.7

// returns inhibition for CCCCC#Cc1nc(NCc2cccc(I)c2)c2ncn([C@@H]3SC[C@@H](O)[C@H]3O)c2n1 with Adenosine receptor A3 (Homo sapiens); value = 40

[P] CCCC/C=C/c1nc2c(N)ncnc2n1[C@@H]1SC[C@@H](O)[C@H]1O
[Q] CCCC/C=C/c1nc(N)c2ncn([C@@H]3OC[C@@H](O)[C@H]3O)c2n1
[R] CCCCC#Cc1nc(NCc2cccc(F)c2)c2ncn([C@@H]3OC[C@@H](O)[C@H]3O)c2n1
[S] CCCCCCc1nc2c(N)ncnc2n1[C@@H]1OC[C@@H](O)[C@H]1O
Ask: Order the 4 molecules from highest to lowest inhibition. Use the labels to give the ranking in the order requested.
Result: Q, R, S, P
(Q: 42.6%, R: 29.5%, S: 12.9%, P: 6.1%)

====

# TESTED TARGET: Adenosine receptor A1 (Homo sapiens)
# PROTOCOL NOTES: Displacement of [3H]R-PIA from human recombinant adenosine A1 receptor expressed in CHO cells at 10 uM after 60 mins by […]
# Type: cell-based
OUTCOME MEASURE: inhibition (%)

Recorded results for 2 molecules are shown here.
Entry CCCC/C=C/c1nc(N)c2ncn([C@@H]3OC[C@@H](O)[C@H]3O)c2n1 , inhibition reported as 31.9

inhibition reported for this molecule CCCCC#Cc1nc(NCc2cccc(F)c2)c2ncn([C@@H]3OC[C@@H](O)[C@H]3O)c2n1 : 9

[P] CCCCC#Cc1nc(NCc2cccc(Cl)c2)c2ncn([C@@H]3OC[C@@H](O)[C@H]3O)c2n1
[Q] CCCCC#Cc1nc(NCc2cccc(I)c2)c2ncn([C@@H]3OC[C@@H](O)[C@H]3O)c2n1
Ask: // max by inhibition over [ P , Q ] // output: label of the selected item
Result: Q
(Q: 18%, P: 9%)

[1] CCCCC#Cc1nc(NCc2cccc(I)c2)c2ncn([C@@H]3SC[C@@H](O)[C@H]3O)c2n1
[2] CCCCCCc1nc(N)c2ncn([C@@H]3OC[C@@H](O)[C@H]3O)c2n1
[3] CCCCC#Cc1nc(NCc2cccc(Cl)c2)c2ncn([C@@H]3SC[C@@H](O)[C@H]3O)c2n1
Ask: Please list these in order of increasing inhibition. Thank you! Please list the labels in the order you were asked to rank them.
Result: 2, 1, 3
